These measurements were taken from patent US20210322412A1.

TARGET_SYSTEM: human CCR5 receptors (Homo sapiens, UniProt P51681)
Sequence (P51681 whole entry): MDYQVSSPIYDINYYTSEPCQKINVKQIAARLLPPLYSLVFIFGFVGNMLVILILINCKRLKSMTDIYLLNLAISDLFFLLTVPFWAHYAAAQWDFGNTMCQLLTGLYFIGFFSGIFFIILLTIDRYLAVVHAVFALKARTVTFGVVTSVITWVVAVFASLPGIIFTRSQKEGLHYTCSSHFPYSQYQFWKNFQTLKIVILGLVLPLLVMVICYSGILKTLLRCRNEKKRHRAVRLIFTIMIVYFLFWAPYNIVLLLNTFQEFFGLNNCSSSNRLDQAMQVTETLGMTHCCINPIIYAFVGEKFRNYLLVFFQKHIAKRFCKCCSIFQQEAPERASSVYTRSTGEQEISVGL
ATTRIBUTE_MEASURED: IC50 (nM)

MOLECULE | ATTRIBUTE_MEASURED | VALUE_UNIT | RECORDED_RESULT
CO[C@H]1COCC[C@H]1NC1CCN(C(=O)c2ncnc(NC[C@H]3CCC[C@@H](c4ccc(C)cc4)O3)c2C)CC1.O=C(O)CC(O)(CC(=O)O)C(=O)O [Compound 1, citrate] | IC50 | nM | 88
